# target_or_system: T1, Chryseobacterium gambrini deamidase polypeptide, wildtype, with His-tag (Chryseobacterium gambrini)
# T1 sequence: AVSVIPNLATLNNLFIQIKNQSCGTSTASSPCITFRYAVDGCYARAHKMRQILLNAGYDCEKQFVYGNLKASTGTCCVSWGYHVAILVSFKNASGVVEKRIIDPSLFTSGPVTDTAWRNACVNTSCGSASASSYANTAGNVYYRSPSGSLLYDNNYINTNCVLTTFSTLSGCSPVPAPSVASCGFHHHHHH
# measurement_description: cell-based or functional assay
quantity_name: NanoDSF thermal unfolding temperature (° C.)

[[record]]
binder = "Chryseobacterium gambrini propeptide F99G (protein) NQDPNLVVKENNENAMRDFGSTIPVGIQKEGNVLKVSFIISAQFYEIKDSKENEAFISMIKSAIENETPVHVFLKKNSNEIAKVEKATDEDVTYFKSIGTKEVKEENRK"
quantity_name = "NanoDSF thermal unfolding temperature"
readout_units = "° C."
val = 69.3

[[record]]
binder = "Chryseobacterium gambrini propeptide F99K (protein) NQDPNLVVKENNENAMRDFGSTIPVGIQKEGNVLKVSFIISAQFYEIKDSKENEAFISMIKSAIENETPVHVFLKKNSNEIAKVEKATDEDVTYFKSIKTKEVKEENRK"
quantity_name = "NanoDSF thermal unfolding temperature"
readout_units = "° C."
val = 78.4

[[record]]
binder = "Chryseobacterium gambrini propeptide I23S (protein) NQDPNLVVKENNENAMRDFGSTSPVGIQKEGNVLKVSFIISAQFYEIKDSKENEAFISMIKSAIENETPVHVFLKKNSNEIAKVEKATDEDVTYFKSIFTKEVKEENRK"
quantity_name = "NanoDSF thermal unfolding temperature"
readout_units = "° C."
val = 77.2

[[record]]
binder = "Chryseobacterium gambrini propeptide F99A (protein) NQDPNLVVKENNENAMRDFGSTIPVGIQKEGNVLKVSFIISAQFYEIKDSKENEAFISMIKSAIENETPVHVFLKKNSNEIAKVEKATDEDVTYFKSIATKEVKEENRK"
quantity_name = "NanoDSF thermal unfolding temperature"
readout_units = "° C."
val = 70.4

